measurementNotes: Binding affinity towards D1-like dopamine receptor in caudate-putamen membranes of sprague-dawley rat brain by using [3H]-SCH- 23390 as radioligand
Assay type: cell membranes, Membrane
pKi: −log10 of the molar value.
Quick reference: pKi of the listed items.
parameter: pKi

> print(dat)
                                 smilesdata  obsvalue
1  COc1ccccc1N1CCN(CCCCNC(=O)c2ccc3ccccc3c2)CC1      6.20
2       c1ccc(CCN2CCC3=C(CCc4ccccc43)C2)cc1      6.09
3  O=C(NCCCCN1CCC2=C(CCc3ccccc32)C1)c1ccc2ccccc2c1      6.00
4              CCCCCN1CCC2=C(CCc3ccccc32)C1      5.98
5                CCCN1CCC2=C(CCc3ccccc32)C1      5.95
6               CCCCN1CCC2=C(CCc3ccccc32)C1      5.81
7     c1ccc(CCCCN2CCC3=C(CCc4ccccc43)C2)cc1      6.16
